Task for the reader: assign each of the following compounds its reported MIC.
- Tested on: Penicillium sp.
- method description: Antifungal activity against Penicillium sp. after 48 hr by microdilution method
- Type: functional
Use µg/mL as the unit, but write only the number.

Endpoint output: MIC of CCOC(=O)C1CC(c2ccc(OCCc3ccc(CC)cn3)cc2)=NO1 (stereo not given) . Value?
11

# repeat for CCc1ccc(CCOc2ccc(C3=NOC(c4ccccc4)C3)cc2)nc1 (stereo not given)
23

# repeat for CCc1ccc(CCOc2ccc(C3=NOC(Cc4ccc5c(c4)OCO5)C3)cc2)nc1 (stereo not given)
21

# repeat for CCc1ccc(CCOc2ccc(C3=NOC(Cc4ccc(O)c(OC)c4)C3)cc2)nc1 (stereo not given)
11

# repeat for CCc1ccc(CCOc2ccc(C3=NOC(C#N)C3)cc2)nc1 (stereo not given)
20

###

- Tested on: Fusarium verticillioides
- method description: Antifungal activity against Fusarium verticillioides at 25 ug/disk after 48 hr by disk diffusion method
- Format: functional
- condition set: read-out: DIZ
Answer 0 if zone of inhibition at 25 µg/disc is under 10 mm, and 1 if it is 10 mm or more.

Confirm if zone of inhibition at 25 µg/disc reported for the compound CCOC(=O)C1CC(c2ccc(OCCc3ccc(CC)cn3)cc2)=NO1 (stereo not drawn) is 10 mm or above.
0

# repeat for CCc1ccc(CCOc2ccc(C3=NOC(C(=O)OC)C3)cc2)nc1 (stereo not drawn)
0

# repeat for CCc1ccc(CCOc2ccc(C3=NOC(c4ccccc4)C3)cc2)nc1 (stereo not drawn)
0

# repeat for CCc1ccc(CCOc2ccc(C3=NOC(CO)C3)cc2)nc1 (stereo not drawn)
1

# repeat for CCc1ccc(CCOc2ccc(C3=NOC(Cc4ccc5c(c4)OCO5)C3)cc2)nc1 (stereo not drawn)
0

# repeat for CCc1ccc(CCOc2ccc(C3=NOC(Cc4ccc(O)c(OC)c4)C3)cc2)nc1 (stereo not drawn)
1

###

- System: Bacillus subtilis
- method description: Antibacterial activity against Bacillus subtilis at 25 ug/disk after 24 hr by disk diffusion method
- Type: functional
- condition set: read-out: DIZ
Task for the reader: assign each of the following compounds its reported zone of inhibition at 25 µg/disc.
Use mm as the unit, but write only the number.

Endpoint output: zone of inhibition at 25 µg/disc of CCc1ccc(CCOc2ccc(C3=NOC(Cc4ccc(O)c(OC)c4)C3)cc2)nc1 (centres undefined) . Value?
12

# repeat for CCc1ccc(CCOc2ccc(C3=NOC(c4ccccc4)C3)cc2)nc1 (centres undefined)
5

# repeat for CCc1ccc(CCOc2ccc(C3=NOC(Cc4ccc5c(c4)OCO5)C3)cc2)nc1 (centres undefined)
5

# repeat for CCc1ccc(CCOc2ccc(C3=NOC(C(=O)OC)C3)cc2)nc1 (centres undefined)
5

# repeat for CCc1ccc(CCOc2ccc(C3=NOC(CO)C3)cc2)nc1 (centres undefined)
14

# repeat for CCOC(=O)C1CC(c2ccc(OCCc3ccc(CC)cn3)cc2)=NO1 (centres undefined)
11

# repeat for CCc1ccc(CCOc2ccc(C3=NOC(C#N)C3)cc2)nc1 (centres undefined)
7

# repeat for `CN[C@@H]1[C@H](O[C@H]2[C@H](O[C@H]3[C@H](O)[C@@H](O)[C@H](N=C(N)N)[C@@H](O)[C@@H]3N=C(N)N)O[C@@H](C)[C@]2(O)C=O)O[C@@H](CO)[C@H](O)[C@H]1O`
13

# repeat for CCc1ccc(CCOc2ccc(C3=NOC(Cc4ccc(OC)c(OC)c4)C3)cc2)nc1 (centres undefined)
14
